test protocol: Measurement of optical absorption spectrum and its pH dependence (ultraviolet visible spectrophotometer)
Assay type: physicochemical
test parameters: phosphate buffers of various pH with DMSO as cosolvent; from pH dependence of absorption spectra; read-out: pKa
attribute measured: pKa

[
  {
    "compound": "CC1(C)C(/C=C/C2=C(N3CCN(Cc4ccc(CC(=O)O)cc4)CC3)C(=C/C=C3/N(CCCS(=O)(=O)[O-])c4ccc5ccccc5c4C3(C)C)/CCC2)=[N+](CCCS(=O)(=O)[O-])c2ccc3ccccc3c21.[Na+] [PBA-Cy, Sodium Salt]",
    "pKa": 4.9
  },
  {
    "compound": "CC1(C)C(/C=C/C2=C(N3CCN(CCC(=O)[O-])CC3)C(=C/C=C3/N(CCCS(=O)(=O)[O-])c4ccc5ccccc5c4C3(C)C)/CCC2)=[N+](CCCS(=O)(=O)[O-])c2ccc3ccccc3c21.[Na+].[Na+] [PPA-Cy, Sodium Salt]",
    "pKa": 5.7
  }
]

Values compiled from patent US20230114083A1.
